# TARGET OF ASSAY: UniProt P41595
# Sequence (P41595 whole entry): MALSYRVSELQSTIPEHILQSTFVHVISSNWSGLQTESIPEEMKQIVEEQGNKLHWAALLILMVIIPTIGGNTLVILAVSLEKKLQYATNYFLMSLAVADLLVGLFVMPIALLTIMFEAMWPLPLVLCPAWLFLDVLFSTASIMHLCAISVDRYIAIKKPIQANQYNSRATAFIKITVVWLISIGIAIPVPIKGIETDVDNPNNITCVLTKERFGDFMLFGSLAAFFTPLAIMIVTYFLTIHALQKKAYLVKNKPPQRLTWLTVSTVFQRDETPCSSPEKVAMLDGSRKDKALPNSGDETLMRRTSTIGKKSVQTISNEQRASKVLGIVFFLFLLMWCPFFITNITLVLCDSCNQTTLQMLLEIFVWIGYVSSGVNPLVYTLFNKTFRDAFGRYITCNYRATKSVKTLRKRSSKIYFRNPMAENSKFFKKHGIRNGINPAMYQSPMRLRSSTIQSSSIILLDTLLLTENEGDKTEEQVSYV
# ASSAY TEXT: 5-HT2bR competitive radioligand binding, [125I]
ENDPOINT LABEL: pIC50
One number for each entry, as −log10 of the molar value.

Lab note: need pIC50 for Cc1cc(-c2ccccc2)nnc1NCCN1CCOCC1 [minaprine] on UniProt P41595, anyone have it?
6.06
